Test system: HT29 colon
Test: NCI-60 one-dose screen, 48 h
Conditions: 10 µM unless noted
This is part of a sample that, as a whole, favours compounds with a hit. Of some 83,000 tested, about 20% had one in any assay. Calls of active or inactive are those of the source. The calls were made as follows: active = growth percent below 10; inactive = the rest.
Answer with one of the outcomes 1 for active, 0 for inactive

Lab log entry: CCCCCCn1c(=N)n(CC(O)COc2cccc(C)c2)c2ccccc21 (stereo not given) — outcome as called in the assay?
1

====

Test system: MALME-3M melanoma
Assay: NCI-60 one-dose screen, 48 h (100 = growth as untreated, 0 = no growth, -100 = all killed)
Conditions: 10 µM unless noted
Experimental: Cells are grown in 96 well plates and exposed to the test compound for 48 hours. Compounds are tested at a single concentration, which is 10^-5 M for most compounds. The reported endpoint is percent growth (GI% or GIPRCNT), where numbers from 0 - 100% represent growth inhibition, and numbers from -100% - 0 represent cell death. For example, a value of 40 represents 60% growth inhibition. A value of 0 means no net growth occurred over the course of the experiment. […]
Compounds without any hit were thinned out: in the full panel of roughly 83,000, 20% have a hit.
Property Name: growth (%)
The reply should be a number in %, with the unit left off.

Recorded growth, per entry:
> print(dat)
                                   molecule     assayed.system  property.name  assay.result
1  FC(F)(F)c1cccc(CNC2CCN(CCc3ccccc3)CC2)c1  MALME-3M melanoma         growth          74.8
2  CCN(CC)c1cc(C)c2cc(NC(=O)c3cccc(OC)c3)ccc2n1  MALME-3M melanoma         growth          82.5
3  COC(=O)C1(C)COP(=O)(Nc2ccc(OC)cc2)OC1 (stereo unspecified)  MALME-3M melanoma         growth           116

Please report the measured growth for `CCOC(=O)c1sc(-c2ccc(OS(=O)(=O)c3ccccc3[N+](=O)[O-])c(C=O)c2)nc1C`
37.8

Fill in reported growth for this entry: `Cc1cc(Br)c(N)c(Br)c1`
104

Give the measured growth for `COc1ccc(/C=C2\NC(=O)NC2=O)cc1O`
105

====

System: NCI-H322M lung
Experiment: NCI-60 one-dose screen, 48 h (100 = growth as untreated, 0 = no growth, -100 = all killed)
Settings: 10 µM unless noted
Compounds without any hit were thinned out: in the full panel of roughly 83,000, 20% have a hit.
# key: entry, value: growth
Please respond with the number in % and leave the unit unwritten.

> print(dat)
                                   compound  assayed.system  property.name  assay.result
1   NCCOc1ncccc1/C=C1\c2ccccc2-c2ccc(F)cc21  NCI-H322M lung         growth          48.4
2  C#CCn1cc(C=C2C(=O)N(C)C(=O)N(C)C2=O)c2cc(Cl)ccc21  NCI-H322M lung         growth           102
3  COc1ccc(Cn2c(Br)c3c(c2-c2cc(OC)c(OC)c(OC)c2)CCc2sc(NC(C)=O)nc2-3)cc1  NCI-H322M lung         growth            63
4  O=c1oc2ccc(-c3ccc(F)cc3F)cc2c(=O)n1-c1ccc(Cl)c(C(F)(F)F)c1  NCI-H322M lung         growth          13.1
5  O=C(c1ccccc1)N(C(=S)NCCc1ccc(Cl)cc1)c1ccccc1  NCI-H322M lung         growth           103

Tell me growth reported for `COc1ccc2oc(=O)cc(Cn3cc(Cn4cnc5c4c(=O)n(C)c(=O)n5C)nn3)c2c1`
101

Look up and state reported growth for CC(C)(C)c1ccc(C2CC(=O)C3=C(C2)Nc2ccccc2N(C(=O)c2ccccc2Cl)C3c2ccc(F)cc2)cc1 (centres undefined)
-9.78

Report growth, nothing else, for this compound: `O=C1/C(=C/c2ccc(O)cc2)COc2ccc(O)cc21`
98.2

Return reported growth. Input compound: `O=C1c2cc(Br)ccc2Oc2cc([N+](=O)[O-])ccc2N1c1ccc(I)cc1F`
103
